Attribution: ChEMBL document CHEMBL4513216

system: Plasmodium berghei; assay: Screen against P. berghei liver stage (PbLuc), transformed with Luciferase, at 10uM; type: functional, HepG2; details: tested at 10 uM
In all, about 69,000 compounds went through this assay and about 8,600 (12%) showed an effect of 50% or more. What follows is part of a selection rich in strong results, with near analogues and random picks from the rest.
Our labelling divides records by INHIBITION into ranges: lower level (below 10%), middle level (10% to below 30%), upper level (30% or more)

# Compound, Category label
rows = [
    ("Cc1cccc(N2CCN(Cc3nc(CC4CC4)no3)CC2)n1", "upper level"),
    ("c1cnn(CCN2CCOC(Cn3cccn3)C2)c1 (stereo not given)", "lower level"),
    ("Nc1nc2c(c(N3CCSCC3)n1)CCN(Cc1ccccn1)CC2", "upper level"),
    ("Clc1cccc2c1CCN(Cc1nc(CC3CC3)no1)C2", "upper level"),
    ("CCc1nc(C2CCCN2CC(=O)N2CCc3ccccc32)no1 (stereo not given)", "middle level"),
    ("CN(C)c1ncc(NC(=O)c2cccc(Nc3cnn(C)c3)c2)cn1", "upper level"),
    ("NCC1CCCN(c2nc(-c3ccccc3)nc3c2CCNCC3)C1 (stereo not given)", "middle level"),
    ("COCCN(Cc1ccoc1)C(=O)c1ccc(Cl)s1", "middle level"),
    ("COc1ccc(C(=O)N2CCCS2(=O)=O)cc1OC", "lower level"),
    ("CCNC(=O)CN(CC)C(=O)c1cc(-c2cccc(Cl)c2)no1", "middle level"),
    ("Cc1cnn(C2CCCN(C(=O)c3cccc(-n4cnnn4)c3)C2)c1 (stereo not given)", "middle level"),
    ("c1ccc(CN2CCc3ncnc(N4CCCC4)c3CC2)nc1", "upper level"),
    ("Nc1nc2c(c(N3CCCC(OCc4ccccn4)C3)n1)CCNCC2 (stereo not given)", "upper level"),
    ("CCN1CCOCC12CCN(C(=O)C1CCC1)CC2", "lower level"),
    ("Cc1nn(C)c2ncnc(N3CCCC(OCc4ccccn4)C3)c12 (stereo not given)", "lower level"),
    ("Cn1c(C(=O)N(CC(N)=O)C2CCCC2)cc(Cl)c1Cl", "lower level"),
    ("Cn1cc(NC(=O)c2cccc(-n3cnnn3)c2)cn1", "upper level"),
    ("Nc1nc2c(c(N3CCCC3)n1)CCN(Cc1ccccn1)CC2", "upper level"),
    ("Cc1cccc(SC2CCN(Cc3nc(CC4CC4)no3)CC2)c1", "middle level"),
    ("O=C(Nc1cnn(CC(F)F)c1)c1cccc(-n2cnnn2)c1", "middle level"),
    ("Nc1nc2c(c(N3CCCC(CN4CCCC4=O)C3)n1)CCNCC2 (stereo not given)", "upper level"),
    ("O=C(Cc1ccccn1)N1CCN(C(=O)CC2CCCC2)CC1", "lower level"),
    ("Cc1nc(N2CCCC(OCc3ccccn3)C2)c2c(C)noc2n1 (stereo not given)", "lower level"),
    ("CSCCC(NC(=O)c1ccccc1)C(=O)N(C)Cc1ccsc1 (stereo not given)", "middle level"),
    ("CN(C)C(=O)c1cccc(Nc2cnn(C)c2)c1", "upper level"),
]
